System: Plasmodium falciparum
Experiment: Antimalarial activity against chloroquine-sensitive Plasmodium falciparum 3D7
Assay type: functional, organism-based
pIC50: −log10 of the molar value.
Reported pIC50 values follow for various compounds

{"compound structure string": "Clc1ccc2c(N/N=C/c3ccc(CN4CCCC4)cc3)ccnc2c1", "pIC50": 7.72}
{"compound structure string": "COc1ccc2nc3cc(Cl)ccc3c(N/N=C/c3ncc[nH]3)c2c1", "pIC50": 9.00}
{"compound structure string": "COc1ccc2nc3cc(Cl)ccc3c(N/N=C/c3ccc(CN4CCCC4)cc3)c2c1", "pIC50": 6.95}
{"compound structure string": "COc1ccc(/C=N/Nc2ccnc3cc4c(cc23)OCO4)cc1", "pIC50": 6.81}
{"compound structure string": "COc1ccc2nc3cc(Cl)ccc3c(N/N=C/c3ncc[nH]3)c2n1", "pIC50": 6.55}
{"compound structure string": "CCN(CC)Cc1ccc(/C=N/Nc2ccnc3ccc(OC)cc23)cc1", "pIC50": 7.96}
{"compound structure string": "COc1cccc2c(N/N=C/c3ccccc3)ccnc12", "pIC50": 5.24}
